System: OVCAR-8 ovarian
experiment-notes: NCI tumour cell line growth inhibition, 48 h; in the data active = GI50 below about 0.43 µM; inactive = the rest
Outcomes: yes for active, no for inactive

molecule: CNC12C3C4C1C1C2C3C41C(=O)N[C@H](C(=O)N(C)[C@H](C[C@@H](OC(C)=O)c1nc(C(=O)N[C@@H](Cc2ccccc2)C[C@H](C)C(=O)OC)cs1)C(C)C)C1CC1 (some centres undefined)
classification: no

molecule: C[CH2][Ge]([CH2]C)([CH2]C)[O]C(=O)C([O][Ge]([CH2]C)([CH2]C)[CH2]C)c1ccccc1 (centres undefined)
classification: no

molecule: C[n+]1cc2cc3c(cc2c2ccccc21)OCO3
classification: no

molecule: O=C([CH-]C(=O)c1ccccc1)c1ccccc1.[CH3-].[CH3-].[CH3-].[Sn+4]
classification: no

molecule: COc1cc(O)c2c(=O)c(OC)c(-c3ccc(OC)c(OC)c3)oc2c1.[Zn+2]
classification: no

molecule: Cc1ccc(N(/C=C/C(=O)C(F)(F)F)CC(=O)c2ccc(Cl)c(Cl)c2)cc1
classification: no

molecule: CCOc1ccc2c(c1)C(=O)c1c-2n(CCCN)c(=O)c2cc([N+](=O)[O-])ccc12
classification: yes

molecule: CSC(=NC#N)S/C=C/C(=O)c1cccc2ccccc12
classification: no

molecule: O=C(c1ccccc1)c1ccc(O)c2ncccc12
classification: no

====

Tested on: HCC-2998 colon
experiment-notes: NCI tumour cell line growth inhibition, 48 h
measurement-type: TGI

molecule: CCOC(=O)CON=c1c2ccccc2ccc2ccccc12
assay-value: > 100 µM

molecule: CC(C)(C)c1cc(-c2c3nc(c(-c4cc(C(C)(C)C)cc(C(C)(C)C)c4)c4ccc([nH]4)c(-c4cc(C(C)(C)C)cc(C(C)(C)C)c4)c4nc(c(-c5cc(C(C)(C)C)cc(C(C)(C)C)c5)c5ccc2[nH]5)C=C4)C=C3)cc(C(C)(C)C)c1
assay-value: > 100 µM

molecule: COc1cc2c(c(OC)c1OC)C(=O)c1c-2n(CCCN=[N+]=[N-])c(=O)c2cc([N+](=O)[O-])ccc12
assay-value: > 100 µM

molecule: C[CH2][Ge]([CH2]C)([CH2]C)[O]C(=O)C([O][Ge]([CH2]C)([CH2]C)[CH2]C)c1ccccc1 (stereo not drawn)
assay-value: 38.5 µM

molecule: CC1NCCc2c1[nH]c1cc(O)ccc21 (stereo not drawn)
assay-value: > 100 µM

molecule: CCOC(=O)C1=C(c2ccccc2)NC(c2ccccc2)=C(C(=O)OCC)c2c1c(=O)cc[nH]c2=O
assay-value: > 100 µM

molecule: CC(C)(C)OC(=O)NC(Cc1ccc(OCc2ccccc2)cn1)C(N)=O (stereo not drawn)
assay-value: > 100 µM

molecule: COc1ccc(-c2cc(=O)c3ccc(F)cc3[nH]2)cc1
assay-value: > 100 µM

molecule: O=C1/C(=C/c2ccc(OC(=O)c3ccc(Cl)cc3)cc2)CCC/C1=C\c1ccc(OC(=O)c2ccc(Cl)cc2)cc1
assay-value: > 100 µM

molecule: Cc1ccc(S(=O)(=O)N[C@@H](Cc2ccccc2)C(=O)CCl)cc1
assay-value: 21.8 µM

molecule: COc1ccc(Nc2ncc(-c3ccccc3)o2)cc1OC
assay-value: > 25 µM

molecule: CNC(C)[C@H]1CCC2C3CCC4C[C@@H](N(C)C(=O)c5ccccc5)CC[C@]4(C)C3CC[C@@]21C (stereo partly drawn)
assay-value: 4.8 µM

molecule: Cc1ccc(N(/C=C/C(=O)C(F)(F)F)CC(=O)c2ccc(Cl)c(Cl)c2)cc1
assay-value: 14.8 µM

molecule: Cc1cccc(C)c1NC(=O)CCCC(=O)C(C#N)c1ccc(Cl)cc1 (stereo not drawn)
assay-value: > 100 µM

molecule: C[C@@H]1CC[C@@H]2[C@@H]1[C@H](OC(=O)c1ccc3ccccc3c1)[C@]1(C3CCCCC3)C[C@@H](OC(=O)CO)[C@@]2(C)O1
assay-value: 28.1 µM

molecule: CCOC(=O)C(C)c1nc2cc(C(F)(F)F)ccc2[nH]c1=O (stereo not drawn)
assay-value: > 100 µM

molecule: CN(C)c1cccc(/C=C(\C#N)c2ccccc2)c1
assay-value: 7.28 µM

molecule: CC1CN=C(NS(=O)(=O)c2cc(C(=O)Nc3ccccc3)c(Cl)cc2S)NN1 (stereo not drawn)
assay-value: > 100 µM
